Target: human neutrophil elastase (Homo sapiens, UniProt P08246)
Sequence (P08246 30-267): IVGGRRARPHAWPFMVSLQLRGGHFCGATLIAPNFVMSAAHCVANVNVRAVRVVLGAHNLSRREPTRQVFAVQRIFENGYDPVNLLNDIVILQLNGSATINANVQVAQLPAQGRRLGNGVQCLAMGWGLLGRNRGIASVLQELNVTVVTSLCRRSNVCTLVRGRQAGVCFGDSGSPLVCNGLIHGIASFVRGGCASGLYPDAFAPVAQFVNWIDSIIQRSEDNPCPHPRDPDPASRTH
Assay: In vitro assay of human neutrophil elastase (HNE)
Format: biochemical
Conditions: 118 nM purified human neutrophil elastase, pH 8.6, 15 min incubation at 30° C., MeO-succinyl-alanyl-alanyl-prolyl-valyl-p-nitroanilide substrate; read-out: HNE IC50
Structures can show the parent of a compound that is named as a salt.
Lab note: compare IC50 with 100 nM, writing condition met if less and condition not met if equal or more.

[[record]]
compound = "CCC[C@H]1C(=O)N(S(C)(=O)=O)[C@H]2CCN(C(=O)CCCCCN(C)C)[C@H]12 (relative stereo) [Example 77]"
classification = "condition not met"

[[record]]
compound = "CCC[C@H]1C(=O)N(S(C)(=O)=O)[C@H]2CCN(C(=O)CCCCCCCCCN3CCCC3)[C@H]12 (relative stereo) [Example 71, hydrochloride]"
classification = "condition met"

[[record]]
compound = "CCC[C@@H]1C(=O)N(S(C)(=O)=O)[C@@H]2CCN(C(=O)CCN3CCCCC3)[C@@H]12.Cl [Example 118, hydrochloride]"
classification = "condition met"

[[record]]
compound = "CCC[C@H]1C(=O)N(S(=O)(=O)c2ccccc2)[C@H]2CCN(C(=O)CCCCCN3CCCCC3)[C@H]12 (relative stereo) [Example 206]"
classification = "condition met"

[[record]]
compound = "CCC[C@H]1C(=O)N(S(C)(=O)=O)[C@H]2CCN(C(=O)CCCN(C)c3ccccc3)[C@H]12 (relative stereo) [Example 88, hydrochloride]"
classification = "condition met"

[[record]]
compound = "C=CC[C@H]1C(=O)N(S(=O)(=O)CCc2ccccc2)[C@H]2CCN(C(=O)OCc3ccccc3)[C@H]12 (relative stereo) [Example 43]"
classification = "condition not met"

[[record]]
compound = "CCC[C@H]1C(=O)N(S(C)(=O)=O)[C@H]2CCN(S(=O)(=O)c3ccc(CN4CCCCCC4)cc3)[C@H]12 (relative stereo) [Example 195, hydrochloride]"
classification = "condition met"

[[record]]
compound = "CCC[C@H]1C(=O)N(S(C)(=O)=O)[C@H]2CCN(C(=O)CN(C)C)[C@H]12 (relative stereo) [Example 102, hydrochloride]"
classification = "condition met"

[[record]]
compound = "CCC[C@H]1C(=O)N(S(C)(=O)=O)[C@H]2CCN(C(=O)CCCN3CCN(C)CC3)[C@H]12 (relative stereo) [Example 82, dihydrochloride]"
classification = "condition not met"

[[record]]
compound = "CCC[C@H]1C(=O)N(S(C)(=O)=O)[C@H]2CCN(C(=O)CCCN3CCOCC3)[C@H]12 (relative stereo) [Example 47]"
classification = "condition not met"

[[record]]
compound = "CC(C)[C@H]1C(=O)N(S(C)(=O)=O)[C@H]2CCN(C(=O)c3ccc(CN4CCCCC4)cc3)[C@H]12.Cl (relative stereo) [Example 174, hydrochloride]"
classification = "condition met"

[[record]]
compound = "CCC[C@H]1C(=O)N(S(C)(=O)=O)[C@H]2CCN(C(=O)CCN3CCCCC3)[C@H]12 (relative stereo) [Example 29]"
classification = "condition not met"

[[record]]
compound = "CC(C)[C@H]1C(=O)N(S(C)(=O)=O)[C@H]2CCN(C(=O)c3ccc(CN4CCN(C)CC4)cc3)[C@H]12.Cl.Cl (relative stereo) [Example 176, dihydrochloride]"
classification = "condition met"

[[record]]
compound = "CC(C)[C@H]1C(=O)N(S(C)(=O)=O)[C@H]2CCN(C(=O)/C=C/CN3CCCCCC3)[C@H]12 (relative stereo) [Example 136, hydrochloride]"
classification = "condition met"

[[record]]
compound = "CC(C)[C@H]1C(=O)N(S(C)(=O)=O)[C@H]2CCN(C(=O)/C=C/c3ccc(CN4CCCCC4)cc3)[C@H]12.Cl (relative stereo) [Example 158, hydrochloride]"
classification = "condition met"

[[record]]
compound = "CCC[C@@H]1C(=O)N(S(=O)(=O)c2ccc3ccccc3c2)[C@@H]2CCN(C(=O)CCN3CCCCC3)[C@@H]12 [Example 54, hydrochloride]"
classification = "condition not met"

[[record]]
compound = "CCC[C@H]1C(=O)N(S(=O)(=O)c2ccc3ccccc3c2)[C@H]2CCN(S(C)(=O)=O)[C@H]12 (relative stereo) [Example 22]"
classification = "condition met"

[[record]]
compound = "CC(C)NC/C=C/C(=O)N1CC[C@H]2[C@H]1[C@@H](C(C)C)C(=O)N2S(C)(=O)=O.Cl (relative stereo) [Example 151, hydrochloride]"
classification = "condition met"

[[record]]
compound = "CCC[C@H]1C(=O)N(S(C)(=O)=O)[C@H]2CCN(S(=O)(=O)c3ccc(OC)cc3)[C@H]12 (relative stereo) [Example 220]"
classification = "condition met"

[[record]]
compound = "CCC[C@H]1C(=O)N(S(C)(=O)=O)[C@H]2CCN(C(=O)CCC(N)=O)[C@H]12 (relative stereo) [Example 95]"
classification = "condition met"

[[record]]
compound = "CCC[C@H]1C(=O)N(S(=O)(=O)c2ccc3ccccc3c2)[C@H]2CCN(C(=O)CCCN3CCCCC3)[C@H]12 (relative stereo) [Example 39]"
classification = "condition not met"

